- Target desc: human GPR39 receptor (Homo sapiens, UniProt O43194)
- Construct: PC3 Cells, Expressing the Endogenous Human GPR39 Receptor; endogenous in cells; host or cells: PC3 (human prostate adenocarcinoma) cells
- Sequence (O43194 1-453): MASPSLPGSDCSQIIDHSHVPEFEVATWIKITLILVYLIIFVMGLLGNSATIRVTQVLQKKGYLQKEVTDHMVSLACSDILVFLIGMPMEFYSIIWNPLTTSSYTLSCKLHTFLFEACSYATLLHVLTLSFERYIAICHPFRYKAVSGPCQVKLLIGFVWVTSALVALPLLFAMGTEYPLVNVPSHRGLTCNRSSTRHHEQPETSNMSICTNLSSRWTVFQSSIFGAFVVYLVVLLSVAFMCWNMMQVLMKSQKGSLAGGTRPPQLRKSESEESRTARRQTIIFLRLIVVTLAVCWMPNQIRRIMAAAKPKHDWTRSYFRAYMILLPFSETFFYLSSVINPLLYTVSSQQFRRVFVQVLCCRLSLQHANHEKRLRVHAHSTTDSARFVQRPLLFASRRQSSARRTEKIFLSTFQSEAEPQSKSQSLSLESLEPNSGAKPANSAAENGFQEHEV
- Measurement description: Intracellular calcium response (FLIPR, Calcium-6) in PC3 cells, antagonism of agonist C3 (TC-G 1008) at EC90
- Type: cell-based
- Condition details: functional pKi (-Log10Ki) by modified Cheng-Prusoff from IC50; PC3 cells endogenously expressing human GPR39; 30 μM ZnCl2; agonist C3 (TC-G 1008) at EC90 1.5 μM; read-out: fpKi activity
Below: a set of entries, each annotated with reported Ki.

// worked examples, Ki included
> print(dat)
                                   compound                               target.desc  readout.type      obs.value
1  Cc1nnc(-c2ccc(C(=O)N3CCC4(CC3)CC4)c(-c3ccn(C(C)C)n3)c2)[nH]1  human GPR39 receptor (Homo sapiens, UniProt O43194)            Ki    ≤ 0.0501 µM
2  Cc1cc(Cl)cc(C2CN(C)CCN2C(=O)c2ccc(NC(=O)C3CC3)cc2N2CCCC2)c1 (racemic) [Example 110]  human GPR39 receptor (Homo sapiens, UniProt O43194)            Ki    ≤ 0.0501 µM
3  Cc1cc(-c2ccc(C(=O)N3CCC(F)(F)CC3)c(-c3ccn(C(C)C)n3)c2)[nH]n1  human GPR39 receptor (Homo sapiens, UniProt O43194)            Ki    ≤ 0.0501 µM
4  Cc1nnc(-c2ccc(C(=O)N3CCC4(CC3)CC4)c(-c3cnn(C(C)C)c3)c2)[nH]1  human GPR39 receptor (Homo sapiens, UniProt O43194)            Ki  0.316 to 1 µM
5  Cc1nnc(-c2ccc(C(=O)N3CCC(F)(F)CC3)c(-c3ccn(C(C)(C)C)n3)c2)[nH]1  human GPR39 receptor (Homo sapiens, UniProt O43194)            Ki    ≤ 0.0501 µM

Please tell me: Ki of CCOC(=O)c1csc(-c2cc(-c3nnc(C)[nH]3)ccc2C(=O)N2CCC(F)(F)CC2)n1 , system human GPR39 receptor (Homo sapiens, UniProt O43194)?
1.26 to 6.31 µM

Same for Cc1ccc(C2CN(C)CCN2C(=O)c2ccc(NC(=O)C3CC3)cc2N2CCCC2)cc1 (racemic)
0.0631 to 0.251 µM

Same for Cc1nnc(-c2ccc(C(=O)N3CCC(OC(F)(F)F)CC3)c(-c3ccn(C(C)C)n3)c2)[nH]1
≤ 0.0501 µM

* * *

- Target desc: human GPR39 receptor (Homo sapiens, UniProt O43194)
- Construct: PC3 Cells, Expressing the Endogenous Human GPR39 Receptor; endogenous in cells
- Sequence (O43194 1-453): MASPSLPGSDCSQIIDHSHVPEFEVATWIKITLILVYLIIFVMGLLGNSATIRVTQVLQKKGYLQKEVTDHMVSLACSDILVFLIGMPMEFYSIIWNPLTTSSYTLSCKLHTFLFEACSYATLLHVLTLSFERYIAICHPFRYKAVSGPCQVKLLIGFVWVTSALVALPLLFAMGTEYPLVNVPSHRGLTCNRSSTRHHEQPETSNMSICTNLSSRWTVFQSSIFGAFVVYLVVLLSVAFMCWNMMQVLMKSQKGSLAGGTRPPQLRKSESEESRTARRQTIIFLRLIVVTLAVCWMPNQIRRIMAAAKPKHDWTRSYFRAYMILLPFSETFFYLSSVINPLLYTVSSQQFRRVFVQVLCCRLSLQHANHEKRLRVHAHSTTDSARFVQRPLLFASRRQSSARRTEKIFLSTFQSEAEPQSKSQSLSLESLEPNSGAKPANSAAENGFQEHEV
- Measurement description: Intracellular calcium response (FLIPR, Calcium-6) in PC3 cells, antagonism of agonist C3 (TC-G 1008) at EC90
- Condition details: functional pKi (-Log10Ki) by modified Cheng-Prusoff from IC50; PC3 cells endogenously expressing human GPR39; 30 μM ZnCl2; agonist C3 (TC-G 1008) at EC90 1.5 μM; read-out: fpKi activity
Below: a set of entries, each annotated with reported Ki.

> print(dat)
                                   molecule       obs.value
1  CC(=O)Nc1ccc(-c2nccc(N3CCCC3)n2)c(N2CCCC2)c1 [Example 101]       > 6310 nM
2  Cc1nnc(-c2ccc(C(=O)N3CCC(C(F)(F)F)CC3)c(-c3cccc(C(F)(F)F)n3)c2)[nH]1 [Example 73]       ≤ 50.1 nM
3  Cc1nnc(-c2ccc(C(=O)N3CCN(C)CC3c3ccccc3)c(N3CCC(C(C)C)C3)c2)[nH]1 (single isomer, unassigned) [Example 125b]       ≤ 50.1 nM
4  Cc1nnc(-c2ccc(C(=O)N3CCN(C)CC3c3ccccc3)c(N3CCC(C(C)C)C3)c2)[nH]1 (single isomer, unassigned) [Example 125c]  63.1 to 251 nM

Next up:
Please tell me: Ki of CN1CCN(C(=O)c2ccc(NC(=O)C3CC3)cc2-c2cnc(C(F)(F)F)s2)C(c2ccccc2)C1 (racemic) [Example 31] , system human GPR39 receptor (Homo sapiens, UniProt O43194)?
> 6310 nM

* * *

Below: a set of entries, each annotated with reported Ki.
- Target desc: human GPR39 receptor (Homo sapiens)
- Construct: PC3 Cells, Expressing the Endogenous Human GPR39 Receptor; endogenous in cells
- Sequence (O43194 1-453): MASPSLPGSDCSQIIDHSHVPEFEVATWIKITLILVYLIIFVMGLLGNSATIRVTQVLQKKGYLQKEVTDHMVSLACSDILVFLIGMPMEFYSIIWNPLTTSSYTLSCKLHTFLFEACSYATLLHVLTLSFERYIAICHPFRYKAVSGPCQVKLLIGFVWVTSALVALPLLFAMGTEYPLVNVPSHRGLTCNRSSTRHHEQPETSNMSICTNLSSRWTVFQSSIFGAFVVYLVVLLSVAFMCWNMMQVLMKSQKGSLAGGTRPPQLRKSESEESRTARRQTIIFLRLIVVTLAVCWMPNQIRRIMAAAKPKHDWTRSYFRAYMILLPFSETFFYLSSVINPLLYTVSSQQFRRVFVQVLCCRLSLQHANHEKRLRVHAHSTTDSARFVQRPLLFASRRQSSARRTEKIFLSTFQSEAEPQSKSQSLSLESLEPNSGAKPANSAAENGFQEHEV
- Measurement description: Intracellular calcium response (FLIPR, Calcium-6) in PC3 cells, antagonism of agonist C3 (TC-G 1008) at EC90
- Condition details: functional pKi (-Log10Ki) by modified Cheng-Prusoff from IC50; PC3 cells endogenously expressing human GPR39; 30 μM ZnCl2; agonist C3 (TC-G 1008) at EC90 1.5 μM; read-out: fpKi activity

// worked examples, Ki included
> print(dat)
                                   molecule                          target.desc  readout.type       obs.value
1  COC1(C)CCN(C(=O)c2ccc(-c3nnc(C)[nH]3)cc2-c2nc(C(F)(F)F)cs2)CC1 [Example 67]  human GPR39 receptor (Homo sapiens)            Ki       ≤ 50.1 nM
2  O=C(Nc1ccc(C(=O)N2CC3CCC(C2)O3)c(N2CCCC2)c1)C1CC1 [Example 6]  human GPR39 receptor (Homo sapiens)            Ki  316 to 1000 nM

Reported Ki for CCOC1CCN(C(=O)c2ccc(-c3nnc(C)[nH]3)cc2-c2ccn(C(C)C)n2)CC1 [Example 42] : what is it?
≤ 50.1 nM

Same for O=C(Nc1ccc(C(=O)N2CCS(=O)(=O)CC2)c(-c2cccc(C(F)(F)F)n2)c1)C1CC1 [Example 37]
≤ 50.1 nM

Same for Cc1c(NC(=O)C2CC2)ccc(C(=O)N2CCS(=O)(=O)CC2)c1N1CCCC1 [Example 94]
316 to 1000 nM

Same for O=C(Nc1ccc(C(=O)N2CCS(=O)(=O)CC2)c(-n2ccc(C(F)F)n2)c1)C1CC1 [Example 116]
63.1 to 251 nM

Same for CCn1nccc1-c1cc(-c2nnc(C)[nH]2)ccc1C(=O)N1CCC(F)(F)CC1 [Example 44]
1260 to 6310 nM

Same for O=C(Nc1ccc(C(=O)N2CCS(=O)(=O)CC2)c(C2=CCCC2)c1)C1CC1 [Example 88]
316 to 1000 nM

Same for CC(C)n1ccc(-c2cc(NC(=O)C3CC3)ccc2C(=O)N2CCS(=O)(=O)CC2)n1 [Example 28]
≤ 50.1 nM

Same for O=C(Nc1ccc(C(=O)N2CCS(=O)(=O)CC2)c(N2CCCC2)c1Cl)C1CC1 [Example 98]
316 to 1000 nM

Cited source for all entries: patent US20250333405A1
